test system: Crude diglycosidase; experiment: Examination of pH in the conversion into isoflavone aglycons by diglycosidase using soybean materials; type: biochemical, Penicillium multicolor IAM7153; conditions: pH3.5, heat treatment of enzyme no, reaction time 6 h, 55° C.
RECORDED_ENDPOINT: Decomposition efficiency of glycitin family in soymilk

>  <SAMPLE_SMILES>
COc1cc2c(=O)c(-c3ccc(O)cc3)coc2cc1O[C@@H]1O[C@H](COC(C)=O)[C@@H](O)[C@H](O)[C@H]1O

>  <OBSERVED>
not detected

$$$$
>  <SAMPLE_SMILES>
COc1cc2c(=O)c(-c3ccc(O)cc3)coc2cc1O[C@@H]1O[C@H](COC(=O)CC(=O)O)[C@@H](O)[C@H](O)[C@H]1O

>  <OBSERVED>
not detected

$$$$
>  <SAMPLE_SMILES>
COc1cc2c(=O)c(-c3ccc(O)cc3)coc2cc1O[C@@H]1O[C@H](CO)[C@@H](O)[C@H](O)[C@H]1O

>  <OBSERVED>
not detected

$$$$
>  <SAMPLE_SMILES>
COc1cc2c(=O)c(-c3ccc(O)cc3)coc2cc1O

>  <OBSERVED>
100.0

$$$$

====

system: Crude diglycosidase; assay: Examination of substrate concentration in the conversion into isoflavone aglycons by diglycosidase using soybean materials; type: biochemical, Penicillium multicolor IAM7153; settings: roasted soy flour, substrate concentration 10%, heat treatment of enzyme no, reaction time 0 h;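 note: percent of the isoflavone family total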
RECORDED_ENDPOINT: Decomposition efficiency: ratio of each glycoside/aglycon within its isoflavone family (%)

I. CC(=O)OC[C@H]1O[C@@H](Oc2cc(O)c3c(=O)c(-c4ccc(O)cc4)coc3c2)[C@H](O)[C@@H](O)[C@@H]1O [acetylgenistin, 6″-O-acetylgenistin]
II. COc1cc2c(=O)c(-c3ccc(O)cc3)coc2cc1O [glycitein]
[Q] Look at I and II . Which one has the lower recorded Decomposition efficiency: ratio of each glycoside/aglycon within its isoflavone family number? // respond with label for picked entry
[A] II

====

Tested on: Crude diglycosidase
Assay: Examination of substrate concentration in the conversion into isoflavone aglycons by diglycosidase using soybean materials;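 note: percent of the isoflavone family total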
Type: biochemical, Penicillium multicolor IAM7153
Details: soymilk, substrate concentration 30%, heat treatment of enzyme no, reaction time 6 h
Experimental: Into 20 mM acetate buffer of pH 4.0 was suspended 0.1 g, 0.25 g, 0.5 g, 1.0 g, or 1.5 g of each of various soybean materials (roasted soy flour (manufactured by Fuji Shokuryo K.K.), soymilk (manufactured by Gitoh Shokuhin K.K.), defatted soybean (manufactured by Fuji Seiyu K.K.), concentrated soybean protein (manufactured by Fuji Seiyu K.K.)). The pH of the suspension was measured and the liquid volume was adjusted to 4.5 mL while the pH was adjusted to 4.0 with 1N hydrochloric acid. […]
RECORDED_ENDPOINT: Decomposition efficiency: ratio of each glycoside/aglycon within its isoflavone family (%)

>  <SAMPLE_SMILES>
O=C(O)CC(=O)OC[C@H]1O[C@@H](Oc2ccc3c(=O)c(-c4ccc(O)cc4)coc3c2)[C@H](O)[C@@H](O)[C@@H]1O

>  <UNITS_OF_MEASURE>
%

>  <OBSERVED>
21.9

$$$$

I. O=C(O)CC(=O)OC[C@H]1O[C@@H](Oc2cc(O)c3c(=O)c(-c4ccc(O)cc4)coc3c2)[C@H](O)[C@@H](O)[C@@H]1O
II. COc1cc2c(=O)c(-c3ccc(O)cc3)coc2cc1O
[Q] Quick check, higher Decomposition efficiency: ratio of each glycoside/aglycon within its isoflavone family between I and II ? // respond with label for picked entry
[A] II
(II: 92.3%, I: 17.1%)
